Entries and their measured log10 TGI follow.
- System: U251 CNS
- TEST SUMMARY: NCI tumour cell line growth inhibition, 48 h
READOUT LABEL: log10 TGI (log10 of the value in µM)

COMPOUND | SYSTEM | VAL
CC(C)/C(Cl)=N\OC(=O)Nc1ccc(F)c([N+](=O)[O-])c1 | U251 CNS | 1.49
COc1cc2c(cc1OCCCCCn1c(-c3ccco3)nc3ccccc31)N=C[C@@H]1CCCN1C2=O | U251 CNS | 1.05
COc1ccc(C(=O)Cn2c(C(C)=O)nc3ccccc32)cc1 | U251 CNS | 1.50
CO/N=C(\COc1ccc2c(c1)oc(=O)c1cc(OC)ccc12)c1ccc(F)cc1 | U251 CNS | 1.61
Cn1cnc([N+](=O)[O-])c1Sc1nc2cccnc2s1 | U251 CNS | 1.82
COc1ccc2c[n+](C)c3c4cc(OC)c(OC)cc4ccc3c2c1 | U251 CNS | 1.18
CC1CC(C)/C(=N/NC(N)=O)C(C(O)CC2CCC(=O)NC2=O)C1 (stereo not drawn) | U251 CNS | 1.96
CC1(C)CCCCCC(C)(CCCCCCCCCCCO)C1=O (stereo not drawn) | U251 CNS | 1.49
CC(C)C(Sc1nc(-c2ccccc2)c(-c2ccccc2)[nH]1)C(=O)N/N=C/c1ccc([N+](=O)[O-])cc1 (stereo not drawn) | U251 CNS | 1.47
Cc1ccc(NSc2ccccc2[N+](=O)[O-])cc1 | U251 CNS | 1.21
O=C1NC(N/N=C/c2ccccc2)=N/C1=C\c1cccs1 | U251 CNS | 1.52
COC(=O)c1cc2c3ccccc3n3c(=O)c4cc5cc(OC)c(N(S(=O)(=O)c6ccc(C)cc6)S(=O)(=O)c6ccc(C)cc6)cc5nc4c(n1)c23 | U251 CNS | 1.13
Oc1ccc2ccccc2c1C(c1ccc(Cl)cc1)c1c(O)ccc2ccccc12 | U251 CNS | 1.11
c1ccc2c(-c3nc4ccccc4[nH]3)cccc2c1 | U251 CNS | 1.42
CCN(CC)c1nc(N(C)C)c2ccc(OC)cc2n1 | U251 CNS | 1.86
CCC[CH2][Sn]1([CH2]CCC)[O]C(=O)c2cccc(OC)c2[O]1 | U251 CNS | -0.12
CC(=O)O[C@H]1[C@@H](OC2CCCC2(c2ccccc2)c2ccccc2)O[N+]([O-])=C[C@@]12COCc1cc3c(cc12)OCO3 (stereo partly drawn) | U251 CNS | 1.35
O=c1oc2cc(O)ccc2cc1-c1nc2ccccc2s1 | U251 CNS | 1.75
Cc1ccc(-c2nc3c(C(=O)NCCN(C)C)cccc3[nH]2)cc1 | U251 CNS | 1.79
CCCN1CN(c2ccccc2)C2(CCN(CCCC(=O)c3ccc(F)cc3)CC2)C1=O | U251 CNS | 1.49

###

- Test system: SF-539 CNS
- TEST SUMMARY: NCI tumour cell line growth inhibition, 48 h
Entries and their measured GI50 follow.

MOL SMILES | SYSTEM | GI50
Oc1ccccc1Nc1nc2ccccc2c2occc12 | SF-539 CNS | 10400 nM
Cn1ccnc1C(=O)/C=C/c1ccc(C(=O)Nc2ccccc2O)cc1 | SF-539 CNS | 1560 nM
O=C(N1CCC(CN=c2cc3n(-c4ccc(Cl)cc4)c4ccccc4nc-3cc2Nc2ccc(Cl)cc2)CC1)N1CC1 | SF-539 CNS | 1630 nM
CCSc1nc(N2CCCCC2)c2cn[nH]c2n1 | SF-539 CNS | 12400 nM
COc1cc(C(=O)/C=C/c2c(-c3ccc(F)cc3)nc3ncccn23)cc(OC)c1OC | SF-539 CNS | 1550 nM
O=C(Nc1ccc(Cl)cc1)c1ccc([N+](=O)[O-])o1 | SF-539 CNS | 2220 nM
